From: patent US4775674A

# Tested on: ferrets (right ventricular contractile force, blood pressure)
# Run description: In vivo inotropic activity in ferrets
# Design: species or system ferret
# Run conditions: Mustela putorius, 1 h; anesthetized ferret, intraduodenal, 3 mg/kg, 60 minutes, vs predose control; read-out: Maximum Percentage Change Right Ventricular Contractile Force (RVCF)
Experimental readout: change in vivo at 3 mg/kg (%)
Report the figure in % without appending any unit label.

Enquiry: # input molecule: CN(C(=O)CCCOc1ccc2nc3nc(O)n(C)c3cc2c1)C1CCCCCC1 [Example 23] ; wanted: its change in vivo at 3 mg/kg
Return: 24

Enquiry: Bench note: what change in vivo at 3 mg/kg did COC(=O)CCCOc1ccc2nc3[nH]c(=O)n(C)c3cc2c1 [Example 11] show?
Return: -10

Enquiry: Could you tell me which change in vivo at 3 mg/kg is on file for O=C(CCCOc1ccc2nc3[nH]c(=O)[nH]c3cc2c1)N1CCOCC1 [Example 15] ?
Return: 2

Enquiry: Look up change in vivo at 3 mg/kg: O=c1[nH]c2cc3cc(OCCCCS(=O)(=O)c4ccccc4)ccc3nc2[nH]1 [Example 35]
Return: 11

Enquiry: Data request, read-out change in vivo at 3 mg/kg, for O=C(O)CCCOc1ccc2nc3[nH]c(=O)[nH]c3cc2c1 [Example 4]
Return: 3

Enquiry: What does the data say about its change in vivo at 3 mg/kg? Entry: O=C(CCCOc1ccc2nc3[nH]c(=O)[nH]c3cc2c1)NC1CCCCC1 [Example 18]
Return: 5
